ASSAYED TARGET: T1, Mu HER3: CD33-[Murine HER3, residues 20-643]-TAG (mouse, UniProt Q61526 20-643)
T1 construct: also called mu HER3-Tag; not shown: C-terminal TAG (e.g. FLAG TAG)
EXPERIMENT NOTES: solution equilibrium titration (SET), IgG, ECL read-out
Here, each record is paired with measured Kd data.
Note: unit nM is implicit; provide only the numeric part.

Task: I'd like to know its Kd. The binder in question is MOR12515 (antibody, human IgG1, lambda, V domains shown, Tested as IgG) VH: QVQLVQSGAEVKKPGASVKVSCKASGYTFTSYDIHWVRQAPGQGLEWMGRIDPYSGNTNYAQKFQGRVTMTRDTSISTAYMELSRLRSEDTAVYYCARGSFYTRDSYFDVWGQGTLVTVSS VL: DIALTQPASVSGSPGQSITISCTGTSSDVGTYNQVSWYQQHPGKAPKLMIYGVSKRPSGVSNRFSGSKSGNTASLTISGLQAEDEADYYCYSRDSPMDQVFGGGTKLTVLG
Output: 1.5

Task: Kd for MOR12921 (antibody, human IgG1, lambda, V domains shown, Tested as IgG) VH: QVQLVQSGAEVKKPGASVKVSCKASGYTFTGYYMHWVRQAPGQGLEWMGDIDPHSGNAVYAQKFQGRVTMTRDTSISTAYMELSRLRSEDTAVYYCARGSFYTRDSYFDVWGQGTLVTVSS VL: DIALTQPASVSGSPGQSITISCTGTSSDVGTYNQVSWYQQHPGKAPKLMIYGVSKRPSGVSNRFSGSKSGNTASLTISGLQAEDEADYYCSSRDLIGHYVFGGGTKLTVLG ?
Output: 0.56

// next item, Kd requested
Task: Which value of Kd has been reported for MOR12606 (antibody, human IgG1, kappa, V domains shown, Tested as IgG) VH: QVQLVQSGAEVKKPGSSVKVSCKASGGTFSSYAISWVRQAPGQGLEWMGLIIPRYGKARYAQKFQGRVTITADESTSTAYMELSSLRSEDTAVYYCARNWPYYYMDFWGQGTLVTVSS VL: DIVLTQSPATLSLSPGERATLSCRASQNIVFNLAWYQQKPGQAPRLLIYDASNRATGVPARFSGSGSGTDFTLTISSLEPEDFAVYYCQQTKSKPSPTFGQGTKVEIKR in the records?
Output: 1.4
